tested-on: Histone-lysine N-methyltransferase EHMT2 (Homo sapiens)
assay-comment: qHTS Assay for Inhibitors of Histone Lysine Methyltransferase G9a; also: nearly all actives have a fitted effect of over 75% in size; also: potency is read from the fitted curve at half-maximal effect
test-settings: G9a H3K9 monomethylation, AlphaScreen, 2 h; series mostly up to 59 µM
Screen size: about 350,000 compounds; about 31,000 (8.9%) were called active. Roughly 15% stayed inconclusive and do not appear here. The entries come from a sample that favours actives as a whole.
reported-metric: Potency

* O=C(Nc1ccccc1)O/N=C1\CCCCC1c1ccc([N+](=O)[O-])cc1[N+](=O)[O-] (stereo unspecified) | inactive
* CCOC(=O)CC1COCCN1C(=O)c1cc(COc2ccc(F)c(F)c2)on1 (stereo unspecified) | inactive
* CCc1noc(C)c1C(=O)N1CCCSC1=Nc1ccccc1OC | inactive
* COc1ccc(/C(O)=C2/C(=O)C(=O)N(CCCN(C)C)C2c2ccccc2)cc1OC (stereo unspecified) | inactive
* Cc1cc(C)c2[nH]c(=O)c(CN(Cc3ccccc3)C(=S)NCCCN(C)C)cc2c1 | inactive
* Cc1cccc(C(=O)NCCCN(C)CCCNC(=O)c2cccc(C)c2)c1 | inactive
* CCc1nn(CC(=O)Nc2cc(C)cc(C)c2)c(=O)c2cc3sccc3n12 | inactive
* COc1ccc(C)cc1NC(=O)CNCc1cccs1 | inactive
* Cc1ccc(-n2c(SCC(=O)Nc3cccc(F)c3)nc3c(oc4ccccc43)c2=O)cc1C | inactive
* CCN(CCCNC(=O)c1ccc(Sc2ccc(C)cc2)c(NC(C)=O)c1)c1cccc(C)c1 | 12.6 µM (active)
* COc1ccccc1CNC(=O)c1ccccc1NC(=O)c1nsc2ccccc12 | inactive
* COc1ccc(CNc2nc(-c3ccc(Cl)cc3)cc(C(F)(F)F)n2)cc1 | inactive
* COC(=O)Cc1[nH]n(-c2nc3ccccc3s2)c(=O)c1C(C)=Nc1ccc(OC)cc1 | 2.82 µM (active)
* CCC(=O)N1CCc2cc(S(=O)(=O)NCCC(=O)Nc3cccc(C)c3C)ccc21 | inactive
* C/C(=N\NC(=O)CC(C)C)c1c(C(F)(F)F)[nH]n(-c2nc3ccccc3s2)c1=O | inactive
* Cc1cc([N+](=O)[O-])ccc1NC1CCCC1 | inactive
* COc1cc2c(cc1O)[C@H](Cc1ccc(Oc3cc(C[C@@H]4NCCc5cc(OC)c(O)cc54)ccc3O)cc1)NCC2 | 12.6 µM (active)
* CCOCCCNC(=O)c1cn(CC)c2ccc(S(=O)(=O)N3CCc4ccccc4C3)cc2c1=O | inactive
* O=C(CS(=O)(=O)c1cccc2nsnc12)N1CCN(c2cccc(Cl)c2)CC1 | inactive
* COc1ccc(OC)c(CNC(=O)Cn2nc(C)c3c(C)n(-c4ccccc4)nc3c2=O)c1 | inactive
* CCN(CCCNC(=O)c1ccc2c(c1)NC(=O)CN2C)c1cccc(C)c1 | 7.94 µM (active)
* Cc1cccc(NC(=O)C2CCCN2S(=O)(=O)c2cccc3nsnc23)c1C (stereo unspecified) | inactive
* O=C(COC(=O)c1cc([N+](=O)[O-])ccc1NCc1ccccc1)NC1CCCCC1 | inactive
* CCn1cc(C(=O)NCCCN2CCCCCC2)c(=O)c2cc(S(=O)(=O)N3CCc4ccccc4C3)ccc21 | 31.6 µM (active)
* Cc1ccc(-n2cc(CN(C)Cc3nccn3C)c(-c3cccc(C)c3)n2)cc1 | 39.8 µM (active)
* COc1cc(NC(=O)c2ccc(-c3csc(C)n3)cc2)c(OC)cc1Cl | inactive
* Oc1c(C(c2ccco2)N2CCC3(CC2)OCCO3)sc2ncnn12 (stereo unspecified) | 35.5 µM (active)
* O=[N+]([O-])c1ccc(N/N=C2/CCCCC2c2ccccn2)c([N+](=O)[O-])c1 (stereo unspecified) | 10 µM (active)
* Cc1ccc(NC(=O)Cn2cnc3nc4c(cc3c2=O)CCCC4)cc1Cl | inactive
* CCc1nnc(NC(=O)CCC(=O)N2CCN(c3cc(C)ccc3C)CC2)s1 | inactive
* COc1ccc(N2CC(C(=O)N[C@@H](C)C(=O)N3CCCCC3)CC2=O)cc1 (stereo partly specified) | inactive
* O=C(Nc1ccccc1)OCc1cc(-c2ccc(Cl)cc2)on1 | inactive
* Cc1ccc(C)c2[nH]c(=O)c(CN(Cc3cccnc3)C(=S)NCc3ccco3)cc12 | 50.1 µM (active)
* Oc1ccccc1-c1nc(/C=C/c2ccc(F)cc2)no1 | inactive
* CN1CCN(CCC(=O)N/N=C/C=C2\N(C)c3ccccc3C2(C)C)CC1 | 31.6 µM (active)
* Cc1cc(Cl)ccc1NC(=O)Cc1ccc(NC(=O)N2CCCCc3ccccc32)cc1 | inactive
* CC1=C/C(=N\OS(=O)(=O)c2ccccc2)C=CC1=O | 2.51 µM (active)
* Cc1ccccc1Nc1nc(N)nc(COC(=O)CCC(=O)c2ccc(F)cc2)n1 | inactive
* COc1cccc(C2c3[nH]c4ccccc4c3CCN2Cc2cccc(C)n2)c1 (stereo unspecified) | 44.7 µM (active)
* Cc1ccccc1CNC(=O)CCc1cn(Cc2ccccc2C)c2ccccc12 | inactive
* COc1ccc(-c2[nH]ncc2CN(Cc2nccn2C)C(C)C)cc1F | inactive

====

tested-on: Histone-lysine N-methyltransferase EHMT2 (Homo sapiens) (UniProt Q96KQ7)
Sequence (Q96KQ7 913-1193 limits assumed): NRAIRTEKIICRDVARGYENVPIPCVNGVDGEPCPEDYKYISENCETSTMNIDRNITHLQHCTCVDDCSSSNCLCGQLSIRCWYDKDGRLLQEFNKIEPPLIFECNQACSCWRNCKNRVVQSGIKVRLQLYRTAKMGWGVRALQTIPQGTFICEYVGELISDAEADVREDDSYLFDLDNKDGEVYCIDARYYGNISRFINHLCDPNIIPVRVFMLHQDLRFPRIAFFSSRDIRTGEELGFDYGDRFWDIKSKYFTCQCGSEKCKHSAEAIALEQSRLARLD
assay-comment: qHTS Assay for Inhibitors of Histone Lysine Methyltransferase G9a; also: nearly all actives have a fitted effect of over 75% in size
test-settings: G9a H3K9 monomethylation, AlphaScreen, 2 h; series mostly up to 59 µM
Screen size: about 350,000 compounds; about 31,000 (8.9%) were called active. Roughly 15% stayed inconclusive and do not appear here. The call rests on the fitted dose curve; in most records, active means well fitted inhibition curve with a large enough effect; inconclusive means small, poorly fitted or top-dose-only effect; inactive means no such curve, though single readings can be large or run the other way. Many of the other results were omitted from the sample, so actives are more common in it than they were.
Classes used: label 1 for active, label 0 for inactive

* CC(C)(C)c1ccc(S(=O)(=O)N2CCN(C(=O)c3ccc4c(c3)C(=O)N(Cc3ccncc3)C4=O)CC2)cc1 | label 0
* Cc1ccc(C)c(NC(=O)COC(=O)Cn2c(C)csc2=O)c1 | label 0
* CCN1/C(=C\c2ccc3ccccc3[n+]2CC)Sc2cc(C)ccc21 | label 1
* NS(=O)(=O)c1ccc(CNC(=O)c2cccc(Oc3ccccc3)c2)cc1 | label 0
* CCN(CC)c1ccc(NC(=O)c2ccc(Cl)nc2)cc1 | label 1

====

tested-on: Histone-lysine N-methyltransferase EHMT2 (Homo sapiens) (UniProt Q96KQ7)
assay-comment: qHTS Assay for Inhibitors of Histone Lysine Methyltransferase G9a; also: nearly all actives have a fitted effect of over 75% in size
test-settings: G9a H3K9 monomethylation, AlphaScreen, 2 h; series mostly up to 59 µM
Out of some 350,000 compounds screened, about 31,000 (8.9%) were called active. Not shown: some 15% with an inconclusive outcome. Calls come from the whole dose curve; as a rule, active = well fitted inhibition curve with a large enough effect; inconclusive = small, poorly fitted or top-dose-only effect; inactive = no such curve, though single readings can be large or run the other way. This excerpt belongs to a sample that is enriched for actives.
Classes used: TRUE (active), FALSE (inactive)

• CCOC(=O)c1cc(=O)c2ccc(OCc3ccccc3)cc2o1 = FALSE
• CCn1c(=O)c(=O)[nH]c2c(=O)oc3ccc(S(=O)(=O)Nc4ccc(OC)cc4)cc3c21 = FALSE
• COCCN(Cc1ccco1)C(=O)Cn1ncc2c([nH]c3ccccc32)c1=O = FALSE
• O=[N+]([O-])c1cc(S(=O)(=O)N2CCCC2)ccc1NN=C1CCCC1 = FALSE
• COC(=O)c1nc(NC(=O)c2ccc(F)cc2)n[nH]1 = TRUE
• O=C1C=CC(=O)N1c1ccc(N2CCCCC2)cc1 = TRUE
• COc1ccc(C(=O)Nc2nonc2-c2ccc(OC)c(OC)c2)cc1Cl = FALSE
• CCN1C(=O)/C(=C2/Sc3ccccc3N2CCCS(=O)(=O)O)SC1=S = TRUE
• COc1cc(-c2c(-c3ccc4c(c3)OCO4)noc2C)ccc1F = FALSE
• Cc1cc(-c2ccc(/C=N/n3cnnc3)o2)c([N+](=O)[O-])cc1C = TRUE
• CCOC(=O)N/N=C/c1cn(Cc2ccccc2Cl)c2ccccc12 = FALSE
• COc1cc(OC)c(NC(=O)N2CC3CCCN3c3ccccc32)cc1Cl (stereo not drawn) = TRUE
• O=c1[nH][nH]c(=O)c2cc(N3CCCC3)ccc12 = FALSE
• COc1ccc(CNC(=O)c2ccc(NC(=O)N3CC4CCCN4c4ccccc43)cc2)cc1 (stereo not drawn) = TRUE
• Cc1ccc2ncc(C(=O)Nc3ccc(OC(F)(F)F)cc3)c(=O)n2c1 = FALSE
• CC(C)N1CCC(=NNc2ccc([N+](=O)[O-])cc2S(=O)(=O)N2CCOCC2)CC1 = TRUE
• COc1ccccc1CNC(=O)c1ccc(NC(=O)N2CC(C)Sc3ccccc32)cc1 (stereo not drawn) = FALSE
• CCc1cc2c(cc3c(=O)n(CC(=O)N4CCN(c5cc(Cl)ccc5C)CC4)nc(CC)n32)s1 = FALSE
• COc1ccc(S(=O)(=O)n2nc(C)c(S(=O)(=O)N3CCCCCC3)c2C)cc1 = FALSE
• CN(C)C(CNC(=O)c1ccc(OCc2cn3ccccc3n2)cc1)c1ccco1 (stereo not drawn) = FALSE
• CN(C)CCN(Cc1ccccc1)S(=O)(=O)c1csc(C(N)=O)c1 = FALSE
• Cc1ccc(SCC(=O)Nc2ccc3oc(-c4ccccc4F)nc3c2)cc1 = FALSE
• COc1cc(Cl)c(C)cc1NC(=O)CSc1nnc(-c2cccnc2)n1Cc1ccco1 = TRUE
• CCOC(=O)/C(C#N)=C/c1ccc(N2CCCCC2)cc1 = FALSE
• COC(=O)c1nc(NC(=O)c2ccc(C(C)(C)C)cc2)n[nH]1 = TRUE
• COc1cc(C2C(C(=O)c3ccco3)=C(O)C(=O)N2c2cc(C)on2)ccc1OCc1ccccc1 (stereo not drawn) = FALSE
• Cc1ccccc1CNC(=O)c1ccc(NC(=O)N2CCCCc3ccccc32)cc1 = FALSE
• Oc1ccc(-n2nnnc2SCc2c(F)cccc2Cl)cc1 = FALSE
• CSc1ncc(C(=O)NCc2ccccc2Cl)c(C(F)(F)F)n1 = FALSE
• Cc1ccc(Cn2c(CCCNC(=O)C3CCCCC3)nc3ccccc32)cc1 = FALSE
• Cc1cc(N2C(=O)C(O)=C(C(=O)c3ccc(C)o3)C2c2ccc(OCc3ccccc3)cc2)no1 (stereo not drawn) = TRUE
• O=C(c1cc(-c2ccc(Cl)cc2)on1)N1CCN(c2ccccc2)CC1 = FALSE
• CCN1C(=O)/C(=c2\s/c(=C3\Sc4ccccc4N3C)c(=O)n2C)N(C)C1=S = FALSE
• COc1cc(/C=C2/C(=O)NN(c3ccc(F)cc3)C2=O)cc([N+](=O)[O-])c1O = TRUE
• Cc1ccc(S(=O)(=O)n2nc(C)c(S(=O)(=O)N3CCCCCC3)c2C)cc1 = FALSE
• CCCCN1C(=O)/C(=C/C=C2/C=Cc3ccccc3N2CC)SC1=S = FALSE
• COc1cc(OC)c(NC(=O)C2CCCN2C(=O)OCc2ccccc2)cc1Cl (stereo not drawn) = FALSE
• O=C(NCc1ccccc1CN1CCCC1)c1cccc(S(=O)(=O)Nc2ccc(F)cc2)c1 = FALSE
• CCCc1c(C(=O)N/N=C(\C)CCc2ccc(OC)cc2)nnn1-c1nonc1N = FALSE
• COc1ccc(CCNc2ncnc3c2nnn3Cc2ccccc2)cc1 = FALSE
• Cc1ccc(OCCNC(=O)CCNS(=O)(=O)c2ccc(Br)cc2)cc1 = FALSE
• Cc1cc(NC(=O)CSc2nc3cc(Cl)ccc3c(=O)n2Cc2ccco2)no1 = FALSE
• CC(=O)Nc1nc2ccccc2n1Cc1ccc(C)cc1 = FALSE
